Taken from PubChem BioAssay (NCI).

System: MALME-3M melanoma
Test: NCI tumour cell line growth inhibition, 48 h
The entries below come with measured log10(TGI) values attached.
PROPERTY MEASURED: log10(TGI) (log10 of the value in µM)

SMILES CODE	TESTED ON	log10(TGI)
O=[N+]([O-])c1cccc2nc3ccccc3c(NCCCn3ccnc3[N+](=O)[O-])c12	MALME-3M melanoma	-2.97
COc1cc(NS(C)(=O)=O)ccc1Nc1cc[nH]c2ccc3nccc3c12	MALME-3M melanoma	1.46
O=C(/C=C/c1cc(Cl)cc(Cl)c1O)c1cccc(O)c1	MALME-3M melanoma	1.94
Cc1cc2nc3c4cc(O)ccc4n(CCN(C)C)c3nc2cc1C	MALME-3M melanoma	0.38
CC(C)(C)c1ccc(S(=O)(=O)Oc2ccc3c4c(c(=O)oc3c2)CCCCC4)cc1	MALME-3M melanoma	1.88
CC(C)=CCC[C@]1(C)C=Cc2c(O)c3c(c(CC=C(C)C)c2O1)O[C@]12C(=C[C@@H]4CC1C(C)(C)O[C@@]2(C/C=C(/C)C(=O)O)C4=O)C3=O	MALME-3M melanoma	0.58

###

The entries below come with measured TGI values attached.
System: PC-3 prostate
Assay: NCI tumour cell line growth inhibition, 48 h
PROPERTY MEASURED: TGI (µM)

MOLECULE	TESTED ON	PROPERTY MEASURED	COMPARISON SYMBOL	VALUE REPORTED
COc1c(CC=C(C)C)c(O)c(C(CC(C)C)c2c(O)c3c(c(C(C)=O)c2O)OC(C(C)(C)O)C3)c(O)c1C(C)=O (centres undefined)	PC-3 prostate	TGI	=	10
O=C(NC1(c2cc3ccccc3s2)CCCCC1)C1CCC1	PC-3 prostate	TGI	>	100
CCOc1cc(C2SCC(=O)N2c2ccc(Oc3ccc(Cl)cc3)c(Cl)c2)ccc1O (centres undefined)	PC-3 prostate	TGI	=	33.4
Cc1coc2c1C[C@@]1(C)[C@H](CCC[C@@H]1C)[C@H]2O	PC-3 prostate	TGI	>	100
C=CCn1c(-c2ccc([N+](=O)[O-])cc2)cs/c1=N\C(P(=O)(O)O)P(=O)(O)O	PC-3 prostate	TGI	>	100
C/C(=N\NC(=S)N1CCCCC1)c1ccccn1	PC-3 prostate	TGI	=	12.6
COc1cc(Nc2nc3cc(N)cc(N)c3nc2-c2ccccc2)cc(OC)c1OC	PC-3 prostate	TGI	=	59.3
O=C(O)CN1C=C(C(=O)c2cc3ccccc3n2S(=O)(=O)c2ccccc2)CCC1	PC-3 prostate	TGI	>	100
Cc1nc2ccc(Nc3nc(Cl)nc(N4CCOCC4)n3)cc2n1Cc1ccccc1	PC-3 prostate	TGI	>	100

###

The entries below come with measured TGI values attached.
System: IGROV1 ovarian
Experiment: NCI tumour cell line growth inhibition, 48 h
PROPERTY MEASURED: TGI (µM)

COMPOUND	TESTED ON	COMPARISON SYMBOL	VALUE REPORTED
CCN(CC)c1ccc(/C=N/NC(=O)CSc2nc3ccccc3c(=O)n2CCc2ccc(S(N)(=O)=O)cc2)c(O)c1	IGROV1 ovarian	>	100
CC(=O)O[C@H]1C(=O)[C@@]2(C)C(C(OC(=O)c3ccccc3)[C@]3(O)C[C@H](OC(=O)C(OC(=O)CCCC(=O)NCCCN(C)C)C(NC(=O)c4ccccc4)c4ccccc4)C(C)=C1C3(C)C)C1(OC(C)=O)COC1C[C@@H]2O (stereo partly drawn)	IGROV1 ovarian	=	59
S=c1[nH]nc(CNc2ccc(-c3n[nH]c(=S)n3-c3ccc(Cl)cc3)cc2)n1-c1ccc(Cl)cc1	IGROV1 ovarian	=	47.1
Fc1cc2[nH]ncc2c2c3c(c(-c4cn[nH]c4C(F)(F)F)nc12)CCCC3	IGROV1 ovarian	=	5.88
c1ccc([P+](CCSCCSCC[P+](c2ccccc2)(c2ccccc2)c2ccccc2)(c2ccccc2)c2ccccc2)cc1	IGROV1 ovarian	>	100
CC(C)(Br)C(=O)N1CCN(C(c2ccccc2)c2ccccc2)CC1	IGROV1 ovarian	>	100
CC(ON(C(c1ccccc1)C(C)C)C(C)(C)C)c1ccccc1 (stereo not drawn)	IGROV1 ovarian	=	59.2
Cc1ccc(S(=O)(=O)NC(=O)NCCc2cnc[nH]2)cc1	IGROV1 ovarian	>	100
